assayed-target: Toll-like receptor 2 (Homo sapiens, UniProt O60603)
Sequence (O60603 whole entry): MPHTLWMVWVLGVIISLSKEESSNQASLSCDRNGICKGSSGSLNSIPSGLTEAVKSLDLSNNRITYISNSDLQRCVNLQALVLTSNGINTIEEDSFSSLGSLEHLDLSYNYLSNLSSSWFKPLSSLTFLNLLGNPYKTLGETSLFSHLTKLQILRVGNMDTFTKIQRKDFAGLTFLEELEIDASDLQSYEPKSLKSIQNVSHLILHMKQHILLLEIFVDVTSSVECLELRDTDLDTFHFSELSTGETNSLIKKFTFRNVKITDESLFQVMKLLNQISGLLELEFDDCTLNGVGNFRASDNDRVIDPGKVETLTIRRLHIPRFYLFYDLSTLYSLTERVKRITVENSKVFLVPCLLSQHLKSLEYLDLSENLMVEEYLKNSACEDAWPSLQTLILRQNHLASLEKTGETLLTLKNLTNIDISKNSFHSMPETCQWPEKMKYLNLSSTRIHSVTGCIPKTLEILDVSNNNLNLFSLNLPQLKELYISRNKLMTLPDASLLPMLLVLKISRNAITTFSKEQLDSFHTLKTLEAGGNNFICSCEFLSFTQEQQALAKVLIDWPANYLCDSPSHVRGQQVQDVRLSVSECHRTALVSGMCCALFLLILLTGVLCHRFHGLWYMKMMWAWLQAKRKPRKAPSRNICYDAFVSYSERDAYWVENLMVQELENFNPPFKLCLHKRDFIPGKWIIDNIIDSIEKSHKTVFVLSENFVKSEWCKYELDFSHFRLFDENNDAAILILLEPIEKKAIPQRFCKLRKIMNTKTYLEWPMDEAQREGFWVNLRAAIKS
measurement-description: Agonist activity at human TLR2 expressed in HEK-Blue cells harboring NFkB promoter-driven secreted alkaline phosphatase assessed as induction of NFkB after 12 hrs by spectrophotometric assay
Type: cell-based
Calls of active or inactive are those of the source. The calls are words filed in the database; no cut-off is given here.
Choose the fitting class; nothing outside label 1 for active, label 0 for inactive is accepted.

Examples from the recorded data:
1. CC1CCc2cc(F)cc3c(O)c(C(=O)NCc4cccc5cc[nH]c45)c(=O)n1c23 (stereo unspecified)
label 0
2. CC1CCc2cc(F)cc3c(O)c(C(=O)NCc4ccc5c(c4)OCCO5)c(=O)n1c23 (stereo unspecified)
label 0
3. Cc1nn(C)cc1CNC(=O)c1c(O)c2cc(F)cc3c2n(c1=O)C(C)CC3 (stereo unspecified)
label 0
4. CC1CCc2cc(F)cc3c(O)c(C(=O)NCc4ccnnc4)c(=O)n1c23 (stereo unspecified)
label 0
5. C[C@H]1CCc2cc(F)ccc2N1
label 1

In the following, a different compound is considered.
Request: Tell me the recorded outcome of this test for CC1CCc2cc(F)cc3c(O)c(C(=O)NCc4ccnc5[nH]ccc45)c(=O)n1c23 (stereo unspecified) .
Result: label 0

###

assayed-target: Toll-like receptor 2 (Homo sapiens, UniProt O60603)
measurement-description: Agonist activity at human TLR2 expressed in HEK cells assessed as induction of MCP1 by ELISA
Assay type: cell-based
pEC50: −log10 of the molar value.
assay-endpoint: pEC50

Use the examples below as a reference point.
1) CC1CCc2cc(F)cc3c(O)c(C(=O)NCCc4cccnc4)c(=O)n1c23 (stereo not given)
5.73
2) CC1CCc2cc(F)cc3c(O)c(C(=O)NCc4cncc(F)c4)c(=O)n1c23 (stereo not given)
5.34

a = CC1CCc2cc(F)cc3c(O)c(C(=O)NCc4cccnc4N(C)C)c(=O)n1c23 (stereo not given)
b = CC1CCc2cc(F)cc3c(O)c(C(=O)NCc4ccc(N)nc4)c(=O)n1c23 (stereo not given)
c = CC1CCc2cc(F)cc3c(O)c(C(=O)NCc4cccnc4)c(=O)n1c23 (stereo not given)
Request: Given 3 compounds, produce a descending ranking by pEC50. Please respond with the labels ordered as the question requires.
Result: c, a, b

###

assayed-target: Toll-like receptor 2 (Homo sapiens)
measurement-description: Agonist activity at human TLR2 expressed in HEK-Blue cells harboring NFkB promoter-driven secreted alkaline phosphatase assessed as induction of NFkB after 12 hrs by spectrophotometric assay
Format: cell-based
Calls of active or inactive are those of the source. No cut-off for these calls is given here.
Choose the fitting class; nothing outside active, inactive is accepted.

Request: Tell me the recorded outcome of this test for Cc1nnc(CNC(=O)c2c(O)c3cc(F)cc4c3n(c2=O)C(C)CC4)o1 (stereo unspecified) .
Result: inactive

Request: Tell me the recorded outcome of this test for CC1CCc2cc(F)cc3c(O)c(C(=O)Nc4cccnc4)c(=O)n1c23 (stereo unspecified) .
Result: inactive

Request: Tell me the recorded outcome of this test for CC1CCc2cc(F)cc3c(O)c(C(=O)NCc4cccc5ncccc45)c(=O)n1c23 (stereo unspecified) .
Result: inactive

Request: Tell me the recorded outcome of this test for Cc1cc(CNC(=O)c2c(O)c3cc(F)cc4c3n(c2=O)C(C)CC4)no1 (stereo unspecified) .
Result: inactive

Request: Tell me the recorded outcome of this test for CC1CCc2cc(F)cc3c(O)c(C(=O)NCC4CNCCO4)c(=O)n1c23 (stereo unspecified) .
Result: inactive

Request: Tell me the recorded outcome of this test for C[C@H]1CCc2cc(F)cc3c(O)c(C(=O)NCc4ccc(N)nc4)c(=O)n1c23 .
Result: active
